Quick list: pEC50 per entry.
Tested on: ML-2
Assay explanation: cells
Design: species or system AML cell lines (8); Secondary HTS, 10-point dose-response in triplicate, Cell Titer Glo viability, four-parameter fit EC50
Measurement parameters: Homo sapiens, ML-2, 72 h, read-out: ML-2
pEC50: −log10 of the molar value.

[
  {
    "Molecule": "O=c1cc(N2CCOCC2)oc2c(-c3cccc4c3sc3ccccc34)cccc12",
    "pEC50": "< 5.00"
  },
  {
    "Molecule": "CC(/C=C/C(=O)NO)=C\\[C@@H](C)C(=O)c1ccc(N(C)C)cc1",
    "pEC50": 6.94
  },
  {
    "Molecule": "OC[C@H]1NC[C@H](O)[C@@H](O)[C@H]1O",
    "pEC50": "< 5.00"
  },
  {
    "Molecule": "CCCC(=O)OCOC(=O)C(C)(C)C",
    "pEC50": "< 5.00"
  },
  {
    "Molecule": "Nc1nc(OCc2ccccc2)c2nc[nH]c2n1",
    "pEC50": "< 5.00"
  },
  {
    "Molecule": "O=C(c1ccc(Nc2nccc(-c3cc4ccccc4s3)n2)cc1)N1CCC(N2CCCC2)CC1",
    "pEC50": 6.38
  },
  {
    "Molecule": "NC(=O)c1ccc(I)c([N+](=O)[O-])c1",
    "pEC50": "< 5.00"
  },
  {
    "Molecule": "CN(C)CCCNc1c2ccccc2nc2c1[nH]c1ccccc12",
    "pEC50": 5.74
  },
  {
    "Molecule": "CN(C)C1CCN(C(=O)c2ccc(NC(=O)Nc3ccc(-c4nc(N5CCOCC5)nc(N5CCOCC5)n4)cc3)cc2)CC1",
    "pEC50": "< 5.00"
  },
  {
    "Molecule": "C[C@]1(c2nc3c(C(N)=O)cccc3[nH]2)CCCN1",
    "pEC50": "< 5.00"
  },
  {
    "Molecule": "CC(N[C@H]1C[C@@H]1c1ccccc1)c1ccc2c(c1)OCCO2 (stereo partly drawn)",
    "pEC50": "< 5.00"
  },
  {
    "Molecule": "CO[C@H]1C[C@@H]2CC[C@@H](C)[C@@](O)(O2)C(=O)C(=O)N2CCCC[C@H]2C(=O)O[C@H]([C@H](C)C[C@@H]2CC[C@@H](OC(=O)C(C)(CO)CO)[C@H](OC)C2)CC(=O)[C@H](C)/C=C(\\C)[C@@H](O)[C@@H](OC)C(=O)[C@H](C)C[C@H](C)/C=C/C=C/C=C/1C",
    "pEC50": "< 5.00"
  },
  {
    "Molecule": "CCOc1cc(N2CCC(O)CC2)ccc1Nc1ncc2c(n1)N(C)c1ccccc1C(=O)N2C",
    "pEC50": "< 5.00"
  },
  {
    "Molecule": "Cc1ccc(C(=O)COC(=O)c2cccc(NC(=O)c3ccc([N+](=O)[O-])cc3[N+](=O)[O-])c2)cc1",
    "pEC50": "< 5.00"
  },
  {
    "Molecule": "COc1ccc([C@@]23Oc4cc(OC)cc(OC)c4[C@]2(O)[C@H](O)[C@H](C(=O)N(C)C)[C@H]3c2ccccc2)cc1 [SJ000834151, ROCAGLAMIDE A]",
    "pEC50": 7.36
  }
]

src = paper PMC6522510
